- Tested on: MASP-2 in human serum (human, UniProt O00187 16-686)
- Sequence (O00187 16-686 limits assumed): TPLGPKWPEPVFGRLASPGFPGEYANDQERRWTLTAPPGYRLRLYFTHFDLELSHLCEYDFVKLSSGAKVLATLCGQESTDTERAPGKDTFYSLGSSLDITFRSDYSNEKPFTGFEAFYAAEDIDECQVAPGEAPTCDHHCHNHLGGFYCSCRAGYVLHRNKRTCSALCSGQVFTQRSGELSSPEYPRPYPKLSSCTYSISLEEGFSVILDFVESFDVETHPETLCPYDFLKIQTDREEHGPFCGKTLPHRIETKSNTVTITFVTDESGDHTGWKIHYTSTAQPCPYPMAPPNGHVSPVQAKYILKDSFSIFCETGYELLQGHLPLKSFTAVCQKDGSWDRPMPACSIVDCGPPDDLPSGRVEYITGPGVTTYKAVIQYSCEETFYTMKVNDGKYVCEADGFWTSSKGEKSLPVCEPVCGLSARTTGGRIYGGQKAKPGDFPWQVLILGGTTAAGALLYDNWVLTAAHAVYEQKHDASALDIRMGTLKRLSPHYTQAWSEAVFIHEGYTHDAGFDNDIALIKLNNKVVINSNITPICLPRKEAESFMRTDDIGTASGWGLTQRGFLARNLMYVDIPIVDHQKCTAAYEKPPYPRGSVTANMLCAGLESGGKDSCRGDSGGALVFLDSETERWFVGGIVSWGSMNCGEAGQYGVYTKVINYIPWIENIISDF
- Assay notes: cell-based or functional assay
Below, each entry is listed alongside its reported IC50, inhibition of C4b deposition.
// note: answer is a bare numeric in nM

1) h16B11 H2K3 (antibody, V domains shown) VH: QLQLQESGPGLVKPSETLSLTCTVSGYSITSDYAWNWIRQPPGKGLEWIGYISYSGRTSYNPSLKSRVTISRDTSKNQFSLKLSSVTAADTAVYYCARHYGDYWGQGTLVTVSS VL: DIQMTQSPSSLSASVGDRVTITCRASQNVGTNVAWYQQKPGKAPKALIYSASYRQSGVPSRFSGSGSGTDFTLTISSLQPEDFATYFCQQFNTNPLTFGGGTKVEIK    0.012

Input h28O14 H4K1 (antibody, V domains shown) VH: QVQLVQSGAEVKKPGSSVKVSCKASGYTFRSHTMHWVRQAPGQGLEWMGYINPSTGYINYNQKFQGRVTITADESTSTAYMELSSLRSEDTAVYYCARSNYAYYYGMDYWGQGTTVTVSS VL: DIQMTQSPSSLSASVGDRVTITCRASQDVNTAVAWYQQKPGKAPKLLIYSASYRYTGVPSRFSGSGSGTDFTLTISSLQPEDFATYYCQQHYNIPLTFGGGTKVEIK , output reported IC50, inhibition of C4b deposition. 0.338

Input h3H6 H2K1 (antibody, V domains shown) VH: QVQLVQSGAEVKKPGSSVKVSCKASGYTFATYSIHWVRQAPGQGLEWMGYINPSSGYTNYNQKFQGRVTLTADESTSTAYMELSSLRSEDTAVYYCARVYYTFYHAMDYWGQGTTVTVSS VL: DIQMTQSPSSLSASVGDRVTITCRASQDVNTAVAWYQQKPGKAPKLLIYSASYRYTGVPSRFSGSGSGTDFTLTISSLQPEDFATYYCQQHYNIPLTFGGGTKVEIK , output reported IC50, inhibition of C4b deposition. 0.086

Input h3H6 H3K1 (antibody, V domains shown) VH: QVQLVQSGAEVKKPGSSVKVSCKASGYTFATYSIHWVRQAPGQGLEWMGYINPSSGYTNYNQKFQGRVTITADKSTSTAYMELSSLRSEDTAVYYCARVYYTFYHAMDYWGQGTTVTVSS VL: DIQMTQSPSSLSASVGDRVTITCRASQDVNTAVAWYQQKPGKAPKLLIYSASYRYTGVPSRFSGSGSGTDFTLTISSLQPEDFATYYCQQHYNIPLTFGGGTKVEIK , output reported IC50, inhibition of C4b deposition. 0.017

Input h16B11 H3K3 (antibody, V domains shown) VH: QLQLQESGPGLVKPSETLSLTCTVSGYSITSDYAWNWIRQPPGKGLEWIGYISYSGRTSYNPSLKSRVTISVDTSKNQFSLKLSSVTAADTAVYYCARHYGDYWGQGTLVTVSS VL: DIQMTQSPSSLSASVGDRVTITCRASQNVGTNVAWYQQKPGKAPKALIYSASYRQSGVPSRFSGSGSGTDFTLTISSLQPEDFATYFCQQFNTNPLTFGGGTKVEIK , output reported IC50, inhibition of C4b deposition. 0.44

Input h28O14 H1K1 (antibody, V domains shown) VH: QVQLVQSGAEVKKPGSSVKVSCKASGYTFRSHTMHWVRQAPGQGLEWMGYINPSTGYINYNQKFQGRVTLTADKSTSTAYMELSSLRSEDTAVYYCARSNYAYYYGMDYWGQGTTVTVSS VL: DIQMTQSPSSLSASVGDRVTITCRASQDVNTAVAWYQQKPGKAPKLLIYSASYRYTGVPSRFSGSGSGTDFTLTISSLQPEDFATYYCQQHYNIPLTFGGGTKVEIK , output reported IC50, inhibition of C4b deposition. 0.083

Input h28O14 H2K1 (antibody, V domains shown) VH: QVQLVQSGAEVKKPGSSVKVSCKASGYTFRSHTMHWVRQAPGQGLEWMGYINPSTGYINYNQKFQGRVTLTADESTSTAYMELSSLRSEDTAVYYCARSNYAYYYGMDYWGQGTTVTVSS VL: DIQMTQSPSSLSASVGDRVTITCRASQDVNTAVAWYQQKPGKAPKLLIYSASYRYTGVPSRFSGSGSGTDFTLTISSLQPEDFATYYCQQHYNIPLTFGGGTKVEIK , output reported IC50, inhibition of C4b deposition. 0.324

Input h16B11 H1K3 (antibody, V domains shown) VH: QMQLQESGPGLVKPSETLSLTCTVSGYSITSDYAWNWIRQPPGKGLEWIGYISYSGRTSYNPSLKSRVTISRDTSKNQFSLKLSSVTAADTAVYYCARHYGDYWGQGTLVTVSS VL: DIQMTQSPSSLSASVGDRVTITCRASQNVGTNVAWYQQKPGKAPKALIYSASYRQSGVPSRFSGSGSGTDFTLTISSLQPEDFATYFCQQFNTNPLTFGGGTKVEIK , output reported IC50, inhibition of C4b deposition. 0.021

Input h16B11 H1K1 (antibody, V domains shown) VH: QMQLQESGPGLVKPSETLSLTCTVSGYSITSDYAWNWIRQPPGKGLEWIGYISYSGRTSYNPSLKSRVTISRDTSKNQFSLKLSSVTAADTAVYYCARHYGDYWGQGTLVTVSS VL: DIQMTQSPSSLSASVGDRVTITCRASQNVGTNVAWYQQKPGKAPKALIYSASYRESGVPSRFSGSGSGTDFTLTISSLQPEDFATYFCQQFNTNPLTFGGGTKVEIK , output reported IC50, inhibition of C4b deposition. 0.02

Input h3H6 H4K1 (antibody, V domains shown) VH: QVQLVQSGAEVKKPGSSVKVSCKASGYTFATYSIHWVRQAPGQGLEWMGYINPSSGYTNYNQKFQGRVTITADESTSTAYMELSSLRSEDTAVYYCARVYYTFYHAMDYWGQGTTVTVSS VL: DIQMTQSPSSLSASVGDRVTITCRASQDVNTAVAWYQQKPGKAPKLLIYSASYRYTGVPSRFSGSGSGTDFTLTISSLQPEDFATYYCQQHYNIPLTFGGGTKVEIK , output reported IC50, inhibition of C4b deposition. 0.09
